Reference for the values: patent US6583299B1

Target: MMP-13 (Homo sapiens, UniProt P45452)
Construct: made in house; host or cells: baculovirus / insect cells
Assay: In vitro metalloprotease inhibition, fluorogenic MCA peptide substrate
Type: biochemical
Details: recombinant human enzyme, APMA-activated, room temperature, pH 7.5; read-out: MMP-13 IC50
parameterMeasured: pIC50
As a rule, pIC50 stands for the negative log10 of the concentration, concentration in M.

Request: // lookup pIC50 | system=MMP-13 (Homo sapiens, UniProt P45452) | key= O=C(NC(CS(=O)(=O)c1ccc(Sc2ccccc2)cc1)C(=O)NO)c1ccco1 (stereo not drawn)
Response: 7.85

Request: Another molecule to check: "N[C@H](CNO)CS(=O)(=O)c1ccc(Oc2ccccc2)cc1"
Response: 9.40

Request: Do the same for CC(N)(CS(=O)(=O)c1ccc(Sc2ccccc2)cc1)C(=O)NO (stereo not drawn) please
Response: 8.62

Request: Same again, this time with "CC(C)(C)OC(=O)N[C@@H](CS(=O)(=O)c1ccc(Oc2ccccc2)cc1)C(=O)NO"
Response: 9.52

Request: Try CC(=O)NC(C)(CS(=O)(=O)c1ccc(Sc2ccccc2)cc1)C(=O)NO (stereo not drawn) next.
Response: 6.24

Request: Entry COc1ccc(S(=O)(=O)CC(NC(=O)NC(C)(C)C)C(=O)NO)cc1 (stereo not drawn) please
Response: 7.82

Request: Do the same for "CN(C(=O)Cc1ccncc1)[C@H](CS(=O)(=O)c1ccc(Oc2ccccc2)cc1)C(=O)NO" please
Response: 7.34

Request: Okay, and CC(CS(=O)(=O)c1ccc(Oc2ccccc2)cc1)(NCc1ccccc1)C(=O)NO (stereo not drawn) ?
Response: 9.52

Request: And what about the molecule "CC(=O)N[C@@H](CS(=O)(=O)c1ccc(Sc2ccccc2)cc1)C(=O)NO" ?
Response: 8.54

Request: Can you check CC(C)(C)C(=O)NC(CS(=O)(=O)c1ccc(Oc2ccccc2)cc1)C(=O)NO (stereo not drawn) [Example 10d] next?
Response: 8.57

Request: Same for CC(C)(C)NC(=O)NC(CS(=O)(=O)c1ccc(Sc2ccccc2)cc1)C(=O)NO (stereo not drawn) [Example 20b]
Response: 8.40

Request: Repeat with Cc1ccc(S(=O)(=O)NC(CS(=O)(=O)c2ccc(Sc3ccccc3)cc2)C(=O)NO)cc1 (stereo not drawn) [Example 17c]
Response: 9.40

Request: What do you get for CC(=O)NC(CS(=O)(=O)c1ccc(Sc2ccccc2)cc1)C(=O)NO (stereo not drawn) [Example 15b] ?
Response: 8.23

Request: Another molecule to check: O=C(N[C@@H](CS(=O)(=O)c1ccc(Oc2ccccc2)cc1)C(=O)NO)c1ccnc2ccccc12 [Example 50]
Response: 9.52

Request: Okay, and O=C(NC(CS(=O)(=O)c1ccc(Sc2ccccc2)cc1)C(=O)NO)c1ccncc1 (stereo not drawn) ?
Response: 7.89
